Biological target: Neurogenic locus notch homolog protein 3 (Homo sapiens) (UniProt Q9UM47)
Sequence (Q9UM47 whole entry, looked up): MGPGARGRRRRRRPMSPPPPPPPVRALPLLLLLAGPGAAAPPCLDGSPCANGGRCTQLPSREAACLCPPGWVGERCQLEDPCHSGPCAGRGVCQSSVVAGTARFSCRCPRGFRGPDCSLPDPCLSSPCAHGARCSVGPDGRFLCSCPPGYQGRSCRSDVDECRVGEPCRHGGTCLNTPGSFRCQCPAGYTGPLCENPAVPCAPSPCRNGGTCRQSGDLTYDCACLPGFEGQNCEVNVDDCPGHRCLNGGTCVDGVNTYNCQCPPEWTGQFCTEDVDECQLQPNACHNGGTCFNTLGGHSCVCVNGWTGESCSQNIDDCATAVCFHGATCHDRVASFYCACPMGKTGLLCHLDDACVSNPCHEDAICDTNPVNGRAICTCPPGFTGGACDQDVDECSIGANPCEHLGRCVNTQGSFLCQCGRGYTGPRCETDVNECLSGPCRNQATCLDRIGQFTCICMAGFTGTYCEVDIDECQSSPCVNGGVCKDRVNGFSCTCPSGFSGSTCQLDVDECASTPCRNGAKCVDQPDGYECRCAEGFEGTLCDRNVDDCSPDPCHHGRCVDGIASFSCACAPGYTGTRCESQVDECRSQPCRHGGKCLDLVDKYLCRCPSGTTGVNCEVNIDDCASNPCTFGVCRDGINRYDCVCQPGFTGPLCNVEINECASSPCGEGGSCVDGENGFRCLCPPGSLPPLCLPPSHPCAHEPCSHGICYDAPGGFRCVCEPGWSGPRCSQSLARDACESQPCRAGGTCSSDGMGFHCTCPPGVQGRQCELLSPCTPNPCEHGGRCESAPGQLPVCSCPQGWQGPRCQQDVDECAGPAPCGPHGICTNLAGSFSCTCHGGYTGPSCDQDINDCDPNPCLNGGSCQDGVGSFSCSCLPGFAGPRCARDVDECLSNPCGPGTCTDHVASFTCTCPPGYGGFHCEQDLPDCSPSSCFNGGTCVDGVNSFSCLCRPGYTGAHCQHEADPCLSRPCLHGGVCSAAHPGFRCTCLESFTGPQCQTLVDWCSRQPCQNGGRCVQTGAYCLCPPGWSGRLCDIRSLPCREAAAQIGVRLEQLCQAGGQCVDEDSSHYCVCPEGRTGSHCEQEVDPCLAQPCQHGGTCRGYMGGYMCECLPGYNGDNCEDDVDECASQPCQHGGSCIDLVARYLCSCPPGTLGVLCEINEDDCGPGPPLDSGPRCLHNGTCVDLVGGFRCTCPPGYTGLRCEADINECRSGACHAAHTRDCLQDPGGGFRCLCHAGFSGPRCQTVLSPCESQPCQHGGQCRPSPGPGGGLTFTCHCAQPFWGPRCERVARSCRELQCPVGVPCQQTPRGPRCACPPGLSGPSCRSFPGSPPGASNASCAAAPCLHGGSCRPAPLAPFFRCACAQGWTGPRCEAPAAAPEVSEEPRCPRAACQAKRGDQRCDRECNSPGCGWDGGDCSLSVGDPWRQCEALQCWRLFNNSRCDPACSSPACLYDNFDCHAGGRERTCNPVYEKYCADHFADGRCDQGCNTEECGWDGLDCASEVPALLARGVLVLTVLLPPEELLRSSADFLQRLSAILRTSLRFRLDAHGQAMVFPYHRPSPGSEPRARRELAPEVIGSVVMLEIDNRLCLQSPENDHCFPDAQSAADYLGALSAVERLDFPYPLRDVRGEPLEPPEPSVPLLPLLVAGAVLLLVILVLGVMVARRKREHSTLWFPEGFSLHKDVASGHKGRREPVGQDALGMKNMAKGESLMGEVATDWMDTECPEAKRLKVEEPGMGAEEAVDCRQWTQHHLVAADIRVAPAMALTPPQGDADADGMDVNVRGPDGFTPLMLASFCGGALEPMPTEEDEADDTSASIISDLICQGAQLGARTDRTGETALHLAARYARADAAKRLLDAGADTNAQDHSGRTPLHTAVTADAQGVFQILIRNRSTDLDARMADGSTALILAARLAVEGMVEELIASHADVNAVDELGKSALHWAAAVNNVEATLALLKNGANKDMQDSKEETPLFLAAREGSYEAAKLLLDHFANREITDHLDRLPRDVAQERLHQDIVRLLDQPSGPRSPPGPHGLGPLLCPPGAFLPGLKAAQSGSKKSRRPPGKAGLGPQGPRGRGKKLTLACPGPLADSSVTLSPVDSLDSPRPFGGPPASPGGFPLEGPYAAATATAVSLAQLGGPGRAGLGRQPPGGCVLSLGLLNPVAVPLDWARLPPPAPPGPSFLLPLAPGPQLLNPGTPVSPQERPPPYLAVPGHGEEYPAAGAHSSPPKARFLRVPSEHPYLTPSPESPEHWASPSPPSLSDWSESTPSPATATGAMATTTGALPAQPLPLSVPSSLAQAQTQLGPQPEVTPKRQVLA
Experiment: small molecules binding NOTCH3 protein – biochemical, 635/667 nm fluorescence, primary screen (AID 1096)
Settings: small-molecule microarray, 635 nm fluorescence, higher = more signal
measure name: composite z-score
Answer with the value's number alone.

// solved cases for composite z-score follow
C=CCC(OC(C)=O)[C@@H]1[C@@H](N(Cc2ccc(-c3ccccc3)cc2)C(=O)Cc2ccc(F)cc2)c2cc(OCCCO)ccc2N1C(=O)c1ccc2ccccc2c1 (some centres not stated); 0.147
NC(=O)[C@@]1(Cc2ccccc2)N=C(c2ccc(OCCCO)cc2)O[C@H]1c1ccccc1; -0.0043
CCOC(=O)C[C@H]1[C@H](OC(=O)c2ccc(C(=O)c3ccccc3)cc2)[C@@H](NC(=O)Cc2ccc(OC)cc2)c2cc(OCCCO)ccc2N1C(=O)c1ccc2ccccc2n1; 1.16

Could you tell me which composite z-score is on file for COCCOC(=O)N1C(=O)[C@@]2(c3cc(C#Cc4ccc(OC)cc4)ccc31)[C@H](c1ccc(O)cc1)N1[C@H](c3ccccc3)[C@H](c3ccccc3)OC(=O)[C@H]1[C@@H]2C(=O)Nc1nc2ccccc2s1 ?
1.08

Could you tell me which composite z-score is on file for CC(=O)Nc1cc(Br)ccc1C(=O)NCc1ccccc1 ?
0.199

Could you tell me which composite z-score is on file for COC(=O)[C@H](Cc1ccccc1)N[C@H](/C=C/C1CC1)[C@@H](O)Cc1ccccc1 ?
-0.469

Could you tell me which composite z-score is on file for O=C1NC(=O)C2C1C=CC(C(O)c1ccc(I)cc1)N2Nc1ccc(Cl)cc1Cl (configuration not stated) ?
0.925
